Value source: the RNAGym collection of RNA variant scans (doi:10.1002/anie.201605470)

Provide the recorded self-cleavage for the entries that follow.
B1: Osa-1-4 twister ribozyme (parent)
chain: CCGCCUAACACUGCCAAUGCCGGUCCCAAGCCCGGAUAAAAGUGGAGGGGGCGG

variants of: B1; test: self-cleavage, relative activity (ratio to wild type); higher = more cleavage; co-transcriptional
Could you keep your reply to the number by itself?

Which self-cleavage value is on record for C11A C14A ?
0.07

// returns reported self-cleavage for input G23A G47U
0.06

Dear colleague, I am looking for the recorded self-cleavage of the following variant: G34C U37C
0.65

# get_value(readout='self-cleavage', item= A16G G44U )
0.95

Form field: reported self-cleavage of A16C U18G
0.85

// returns reported self-cleavage for input G35U G42A
0.35

Can you share its self-cleavage? I mean this variant: G34C G50C
0.19

Query (variant): U18G U24C ; field requested: self-cleavage
0.38

So what does the record say about self-cleavage for C52U G44A ?
1

Reported self-cleavage for C21G C52A : what is it?
0.1

Quick one: self-cleavage for A10G C15U ?
0.14

Value lookup for self-cleavage; key = G35A U37C
0.92

Please look up its self-cleavage: G42U G53A
0.1

Name the reported self-cleavage value associated with the variant A38C C27A
0.18

Given the entry C9U G30A , report its measured self-cleavage.
0.02

Reported self-cleavage for C21G C25G : what is it?
0.03

Which self-cleavage value belongs to A17U G42A ?
0.17

Report self-cleavage for A36C C33A please.
0.06

Tell me the measured self-cleavage of C26G C52A , please.
0.12

If you can, please state the reported self-cleavage value of A38C C26U .
0.94

self-cleavage lookup needed for A28U A36U , thanks.
0.94
